B1: PhoQ; a variant is named by its letters at X, in order, P23837 (parent)
chain: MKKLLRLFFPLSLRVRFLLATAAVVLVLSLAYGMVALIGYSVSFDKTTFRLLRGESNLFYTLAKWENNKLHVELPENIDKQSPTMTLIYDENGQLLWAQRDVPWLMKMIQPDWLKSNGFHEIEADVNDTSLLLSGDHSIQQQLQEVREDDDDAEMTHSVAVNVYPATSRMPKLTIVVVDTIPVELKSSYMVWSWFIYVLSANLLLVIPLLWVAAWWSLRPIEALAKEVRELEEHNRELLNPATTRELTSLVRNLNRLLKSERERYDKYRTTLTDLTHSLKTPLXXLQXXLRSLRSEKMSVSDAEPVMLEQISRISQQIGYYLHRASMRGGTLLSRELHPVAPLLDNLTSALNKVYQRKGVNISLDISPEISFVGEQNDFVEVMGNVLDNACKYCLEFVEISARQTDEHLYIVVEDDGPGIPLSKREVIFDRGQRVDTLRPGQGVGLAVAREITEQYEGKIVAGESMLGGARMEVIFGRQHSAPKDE

# Variants of: B1
# test.details: enrichment ratio after two sorts for PhoP signalling (ratio (wild type AVST 3.29)); higher = more functional
# condition: with PhoP (E. coli)
In all, about 140,000 sequences were measured (“enrichment ratio after two sorts for PhoP signalling”: median about 0, highest 2% from about 11 on). The full list was thinned out, with the highest values kept by preference.
measurement.type: enrichment ratio

Study these solved cases before continuing.
variant.descriptor: SPCQ
result.value: ≤ 0.25
//
variant.descriptor: QASN
result.value: 11.4
//
variant.descriptor: SETT
result.value: 12.6

# return enrichment ratio for each item in the list
1. MKTT
2. ILLE
3. KASG
4. QRLI
5. HHCS
6. VHGA
7. STCQ
8. TNAY

// result
≤ 0.25
≤ 0.25
≤ 0.25
≤ 0.25
≤ 0.25
≤ 0.25
15.3
2.94

Hey, just so you know, these numbers are from a collection of fitness landscapes (doi:10.1126/science.1257360).
